The values you see were collected from patent US8969573B2.

Test system: CRL2351 human breast cancer
Test: SRB assay (inhibition of cell proliferation)
Assay type: cell-based
Details: Homo sapiens, CRL2351 human breast cancer cells; summary table; read-out: IC50 [μM} CRL2351
Response field label: string, one of T (IC50 strictly below 1 µM) or F.

Example cases with answers are listed next.
O=C(O)/C(Cc1c[nH]c2ccccc12)=N\Nc1nc(-c2ccc(Cl)c(Cl)c2)cs1: F
COc1ccc(-c2nc(NN=C(Cc3ccccc3[N+](=O)[O-])C(=O)O)sc2-c2ccc(N=[N+]=[N-])cc2)cc1 [KY-379S]: F
COc1ccc(-c2nc(NN=C(Cc3ccccc3[N+](=O)[O-])C(=O)O)sc2-c2ccc(Cl)cc2)cc1 [KY-355PR]: F
COc1ccc(-c2nc(NN=C(Cc3ccccc3[N+](=O)[O-])C(=O)O)sc2-c2ccc(Cl)cc2)cc1OC [KY-353PR]: F
COc1ccc(-c2nc(NN=C(Cc3ccccc3[N+](=O)[O-])C(=O)O)sc2-c2ccc(-n3cc(-c4ccc(N)cc4)nn3)cc2)cc1: F

Query: Is IC50 strictly under 1 µM for the entry O=C(O)/C(Cc1ccccc1)=N/Nc1nc(-c2ccc(Cl)c(Cl)c2)cs1 [KY-706bc] ?
Reply: F

Query: Is IC50 strictly under 1 µM for the entry COc1cc(-c2nc(NN=C(Cc3ccccc3[N+](=O)[O-])C(=O)O)sc2-c2ccc(Cl)c(Cl)c2)cc(OC)c1OC [KY-369S] ?
Reply: T

Query: Is IC50 strictly under 1 µM for the entry O=C(O)/C(Cc1ccccc1[N+](=O)[O-])=N/Nc1nc2c(s1)CSc1c-2ccc(Cl)c1Cl [PC-218F] ?
Reply: T

Query: Is IC50 strictly under 1 µM for the entry O=C(O)/C(Cc1ccccc1[N+](=O)[O-])=N/Nc1nc2c(s1)CCc1cc(Cl)c(Cl)cc1-2 [PC-159F] ?
Reply: T

Query: Is IC50 strictly under 1 µM for the entry O=C(O)/C(Cc1ccccc1[N+](=O)[O-])=N/Nc1nc(-c2ccc(OC(F)(F)F)cc2)cs1 [KY-627S] ?
Reply: F

Query: Is IC50 strictly under 1 µM for the entry [N-]=[N+]=NCCOc1cccc(-c2csc(N/N=C(/Cc3ccccc3[N+](=O)[O-])C(=O)O)n2)c1 ?
Reply: F

Query: Is IC50 strictly under 1 µM for the entry O=C(O)C(Cc1ccccc1[N+](=O)[O-])=NNc1nc(-c2ccccc2)c(-c2ccc(Cl)cc2)s1 [KY-349PR] ?
Reply: F

Query: Is IC50 strictly under 1 µM for the entry [N-]=[N+]=NCCCOc1ccccc1-c1csc(N/N=C(/Cc2ccccc2[N+](=O)[O-])C(=O)O)n1 ?
Reply: T

Query: Is IC50 strictly under 1 µM for the entry Cc1ccc(-c2nc(NN=C(Cc3ccccc3[N+](=O)[O-])C(=O)O)sc2-c2ccc(Cl)c(Cl)c2)cc1 ?
Reply: F

Query: Is IC50 strictly under 1 µM for the entry NC(=O)/C(Cc1ccccc1[N+](=O)[O-])=N/Nc1nc(-c2ccc(Cl)c(Cl)c2)cs1 ?
Reply: F

###

Test system: CRL2351 human breast cancer
Experiment: SRB assay (inhibition of cell proliferation)
Format: cell-based
Conditions: Homo sapiens, CRL2351 human breast cancer cells; summary table; read-out: IC50 [μM} CRL2351
Entries annotated with measured IC50
Return type: number; implicit unit µM.

Use these answered entries as a reference point.
CCCc1sc(N/N=C(/Cc2ccccc2[N+](=O)[O-])C(=O)O)nc1-c1ccc(OC)cc1 [KY-582S]: 13.2
COc1ccc(-c2sc(N/N=C(/Cc3ccccc3[N+](=O)[O-])C(=O)O)nc2-c2ccc(Cl)c(Cl)c2)cc1 [KY-600]: 4.5
COc1cc2c(cc1OC)-c1nc(N/N=C(/Cc3ccccc3[N+](=O)[O-])C(=O)O)sc1CC2 [PC-195S]: 4
COc1ccc(-c2csc(NN=C(Cc3ccccc3[N+](=O)[O-])C(=O)O)n2)cc1 [EK-B2]: 7
O=C(O)[C@@H](Cc1cccc([N+](=O)[O-])c1)Nc1nc(-c2ccc(Cl)c(Cl)c2)cs1 [KY-365]: 3
O=C(O)c1nn(-c2nc(-c3ccccc3)cs2)c2ccc([N+](=O)[O-])cc12 [RYF-292]: 9

API: the following record is the query input.
Query: Can you share its IC50? I mean this compound: O=C(O)/C(=N\Nc1nc(-c2ccc(Cl)c(Cl)c2)cs1)c1ccccc1[N+](=O)[O-] [KY-782-Z]
Reply: 13

###

Target: eIF4E/eIF4G interaction (Homo sapiens, UniProt P06730)
Sequence (P06730 whole entry): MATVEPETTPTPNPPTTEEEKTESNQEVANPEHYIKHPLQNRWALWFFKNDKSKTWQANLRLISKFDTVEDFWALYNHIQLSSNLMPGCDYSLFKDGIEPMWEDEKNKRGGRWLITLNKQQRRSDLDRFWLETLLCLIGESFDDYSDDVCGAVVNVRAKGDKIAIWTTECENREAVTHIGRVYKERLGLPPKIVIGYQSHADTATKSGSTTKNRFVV
Assay: Fluorescent polarization assay
Type: binding
Settings: FITC eIF4G peptide and recombinant eIF4E, ratio to Z (4EGI-1 = 1)
Entries annotated with measured Fp (ratio to Z)
Write no unit; give the number alone.

O=C(O)C(Cc1ccccc1[N+](=O)[O-])=NNc1nc(-c2cc(Br)cc(Br)c2O)cs1 [KH-102BII]: 0.69
[N-]=[N+]=NC/C(=N\Nc1nc(-c2ccc(Cl)c(Cl)c2)cs1)C(=O)O: 1
O=C(O)/C(Cc1ccc(C(F)(F)F)cc1)=N/Nc1nc(-c2ccc(Cl)c(Cl)c2)cs1: 1.1

Query: Can you share its Fp (ratio to Z)? I mean this compound: COc1ccc(-c2nc(NN=C(Cc3ccccc3[N+](=O)[O-])C(=O)O)sc2-c2ccc(OC)c(OC)c2)cc1
Reply: 1.2

Query: Can you share its Fp (ratio to Z)? I mean this compound: [N-]=[N+]=NCCOc1cccc(-c2csc(N/N=C(/Cc3ccccc3[N+](=O)[O-])C(=O)O)n2)c1
Reply: 0.82

Query: Can you share its Fp (ratio to Z)? I mean this compound: COc1ccc(-c2sc(N/N=C(/Cc3ccccc3[N+](=O)[O-])C(=O)O)nc2-c2ccc(-c3ccccc3)cc2)cc1 [KY-577S]
Reply: 1

Query: Can you share its Fp (ratio to Z)? I mean this compound: CCOc1ccc(-c2nc(N/N=C(/Cc3ccccc3[N+](=O)[O-])C(=O)O)sc2-c2ccc(OC)cc2)cc1 [KY-576S]
Reply: 0.82

###

Target: eIF4E/eIF4G interaction (Homo sapiens, UniProt P06730)
Experiment: Fluorescent polarization assay
Type: binding
Conditions: FITC eIF4G peptide and recombinant eIF4E, ratio to Z (4EGI-1 = 1)
Response field label: string, one of t (Fp (ratio to Z) strictly below 1) or f.

O=C(O)C(Cc1ccccc1[N+](=O)[O-])=NNc1nc(-c2ccc(OCCCCCOc3ccccc3)cc2)cs1 [KH-333S]: t
COc1ccc(-c2nc(NN=C(Cc3ccccc3[N+](=O)[O-])C(=O)O)sc2-c2ccc(-n3cc(CCCO)nn3)cc2)cc1 [KY-447]: f
COc1ccc(-c2nc(N/N=C(\Cc3ccccc3[N+](=O)[O-])C(=O)O)sc2-c2cccc(-n3cc(CO)nn3)c2)cc1 [KY-467F]: t
NC(=O)/C(Cc1ccccc1[N+](=O)[O-])=N/Nc1nc(-c2ccc(Cl)c(Cl)c2)cs1 [KY-725]: t
COc1ccc(-c2nc(NN=C(Cc3ccccc3[N+](=O)[O-])C(=O)O)sc2-c2ccc(-n3cc(CO)nn3)cc2)cc1 [KY-383]: f
COc1ccc(-c2nc(NN=C(Cc3ccccc3[N+](=O)[O-])C(=O)O)sc2-c2ccc(Cl)cc2)cc1OC [KY-353PR]: t
O=C(O)C(=NNc1nc(-c2ccc(Cl)c(Cl)c2)cs1)c1cccc([N+](=O)[O-])c1 (stereo in doubt) [KY-788-Z]: t
COC(=O)C1CN(c2nc(-c3ccc(Cl)c(Cl)c3)cs2)CCN1c1ccccc1[N+](=O)[O-] (centres unmarked) [RYF-273]: t
O=C(O)/C(Cc1ccccc1)=N/Nc1nc(-c2ccc(Cl)c(Cl)c2)cs1 [KY-706bc]: t
Br.CCN(CC)c1ccc(-c2csc(N/N=C(\Cc3ccccc3[N+](=O)[O-])C(=O)O)n2)cc1 [KY-615S]: f

Query: Is Fp (ratio to Z) strictly under 1 for the entry O=C(O)/C(Cc1ccccc1[N+](=O)[O-])=N\Nc1nc(-c2ccc(OCCCCCBr)cc2)cs1 [KH-148I] ?
Reply: f

Query: Is Fp (ratio to Z) strictly under 1 for the entry COc1ccc(-c2nc(NN=C(Cc3ccccc3[N+](=O)[O-])C(=O)O)sc2-c2ccc(Cl)c(Cl)c2)cc1 [KY-371A11-B1] ?
Reply: f

Query: Is Fp (ratio to Z) strictly under 1 for the entry COc1ccc(-c2nc(NN=C(Cc3ccccc3[N+](=O)[O-])C(=O)O)sc2-c2ccc(Cl)cc2)cc1 [KY-355PR] ?
Reply: f

Query: Is Fp (ratio to Z) strictly under 1 for the entry COc1ccc(-c2nc(NN=C(Cc3ccccc3[N+](=O)[O-])C(=O)O)sc2-c2ccc(OC)cc2)cc1 [KY-323A] ?
Reply: t

Query: Is Fp (ratio to Z) strictly under 1 for the entry O=C(O)/C(=N\Nc1nc(-c2ccc(Cl)c(Cl)c2)cs1)c1ccccc1[N+](=O)[O-] [KY-782-Z] ?
Reply: t

Query: Is Fp (ratio to Z) strictly under 1 for the entry O=C(O)C(Cc1ccccc1[N+](=O)[O-])=NNc1nc(-c2ccc(OCCCCOc3ccc(Cl)cc3)cc2)cs1 [KH-336S] ?
Reply: t

Query: Is Fp (ratio to Z) strictly under 1 for the entry [N-]=[N+]=NCCCOc1ccccc1-c1csc(N/N=C(/Cc2ccccc2[N+](=O)[O-])C(=O)O)n1 [KH-170] ?
Reply: t

Query: Is Fp (ratio to Z) strictly under 1 for the entry COc1ccc(-c2nc(NN=C(Cc3ccccc3[N+](=O)[O-])C(=O)O)sc2-c2ccc(-n3cc(-c4ccc(N)cc4)nn3)cc2)cc1 [KY-449] ?
Reply: f

Query: Is Fp (ratio to Z) strictly under 1 for the entry O=C(O)C(=NNc1nc(-c2ccc(Cl)c(Cl)c2)cs1)c1ccccc1[N+](=O)[O-] (stereo in doubt) [KY-782-E] ?
Reply: t

Query: Is Fp (ratio to Z) strictly under 1 for the entry COc1ccc(-c2nc(NN=C(Cc3ccccc3[N+](=O)[O-])C(=O)O)sc2-c2ccc(N=[N+]=[N-])cc2)cc1 [KY-379S] ?
Reply: f

Query: Is Fp (ratio to Z) strictly under 1 for the entry [N-]=[N+]=NCCCOc1ccc(-c2csc(N/N=C(/Cc3ccccc3[N+](=O)[O-])C(=O)O)n2)cc1 [KH-167s] ?
Reply: t

Query: Is Fp (ratio to Z) strictly under 1 for the entry O=C(O)C(Cc1ccccc1[N+](=O)[O-])=NNc1nc(-c2cc(Br)cc(Br)c2O)cs1 [KH-102BIIs] ?
Reply: t

Query: Is Fp (ratio to Z) strictly under 1 for the entry O=C(O)/C(Cc1ccccc1[N+](=O)[O-])=N/Nc1nc(-c2ccc(OC(F)(F)F)cc2)cs1 [KY-627S] ?
Reply: t

Query: Is Fp (ratio to Z) strictly under 1 for the entry O=C(O)/C(Cc1ccccc1[N+](=O)[O-])=N\Nc1nc(-c2ccc(N3CCOCC3)c(Br)c2)cs1 [KH-287II-S] ?
Reply: t
